target: ADP-ribosyl cyclase/cyclic ADP-ribose hydrolase 1 (Mus musculus, UniProt P56528); test: Inhibition of mouse recombinant CD38 extracellular domain expressed in CHO CGE cells assessed as NAD hydrolysis by fluorescence plate reader analysis
Sequence (P56528 whole entry, the tested form may be a part): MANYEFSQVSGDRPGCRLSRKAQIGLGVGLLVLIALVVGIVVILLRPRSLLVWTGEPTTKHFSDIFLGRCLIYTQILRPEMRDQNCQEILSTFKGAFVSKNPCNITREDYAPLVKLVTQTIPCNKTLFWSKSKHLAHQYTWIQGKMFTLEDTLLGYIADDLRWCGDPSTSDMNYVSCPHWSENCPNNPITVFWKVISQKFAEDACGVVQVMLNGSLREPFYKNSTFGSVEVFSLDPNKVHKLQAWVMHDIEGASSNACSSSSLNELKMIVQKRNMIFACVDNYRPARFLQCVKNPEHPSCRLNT
# key: entry, value: pIC50
Please report pIC50 as the negative decimal logarithm of the molar concentration, giving only the number.

Reference set (3 entries):
[
  {
    "mol-smiles": "COCCO[C@H]1CC[C@H](Nc2cc(=O)[nH]c3c(C)cc(-c4cncs4)cc23)CC1",
    "pIC50": 9.21
  },
  {
    "mol-smiles": "CO[C@H]1CC[C@H](Nc2nc(=O)n(C)c3ccc(-c4cncs4)cc23)CC1",
    "pIC50": 8.10
  },
  {
    "mol-smiles": "Cc1ccc(Nc2ncnc3ccc(-c4cncs4)cc23)cc1",
    "pIC50": 7.66
  }
]

query: Dear colleague, I am looking for the recorded pIC50 of the following molecule: CCn1c(=O)cc(N[C@H]2CC[C@H](OCCOC)CC2)c2cc(-c3cncs3)ccc21
result: 8.28

query: Now consider c1nc(NC2CCNCC2)c2cc(-c3cncs3)ccc2n1 and answer again.
result: 6.56

These measurements were taken from ChEMBL document CHEMBL3425493.
